Consider the following substances and their measured % survival readings.
# Tested on: HCC1419
# assay summary: SRB cell viability after siRNA transfection
# Format: cell-based, human
# experimental parameters: 40 nM siRNA, day 5 post-transfection, normalized over siCONTROL
# Method: Different normal breast and breast cancer cell lines were used for siRNA transfection. Cells were seeded at various concentrations, ranging from 1500 to 6000 per well according to cell growth rate, into 96 well plates. […] SRB assay was performed to assess cell survival. […] Absorbance was read at 570 mn. The cell survival percentage after each siRNA(s) knock down was calculated over the non-silencing control siCTRL or siPOOL as well as siTOX as a transfection efficiency control. […]
# answer = value followed by unit

Solved cases (3 shown):
# substance, result
rows = [
    ("siRNA #1: siRNA targeting human TTK: 5′-GCAAUACCUUGGAUGAUUA-3′ (SEQ ID NO: 3) (listed as RNA, chemistry not given here)", "0.91%"),
    ("siRNA #3: siRNA targeting human TTK: 5′-GCACGUGACUACUUUCAAA-3′ (SEQ ID NO: 5) (listed as RNA, chemistry not given here)", "0.91%"),
    ("siRNA #2: siRNA targeting human TTK: 5′-GGUAUUAACUGCCCAAGAA-3′ (SEQ ID NO: 4) (listed as RNA, chemistry not given here)", "0.75%"),
]

# context switch: different substance, same % survival
Hello, I am looking for reported % survival with HCC1419 for siRNA #4: siRNA targeting human TTK: 5′-GAUAAGAUCAUCCGACUUU-3′ (SEQ ID NO: 6) (listed as RNA, chemistry not given here) . Could you help?
1.05%
